experiment: Cytotoxicity against african green monkey Vero E6 cells by MTS assay; format: toxicity, cell-based, Vero C1008; details: chlorocebus sabaeus
Assign CC50 to each entry below.

Worked examples, 5 molecules total:
CSC[C@H]1O[C@@H](n2cnc3c(NCc4cccc(C)c4)ncnc32)[C@H](O)[C@@H]1O ... > 100 µM
CC(Nc1ncnc2c1ncn2[C@@H]1O[C@H](CO)[C@@H](O)[C@H]1O)c1ccccc1Cl (some centres undefined) ... > 100 µM
CSC[C@H]1O[C@@H](n2cnc3c(NC(C)c4ccccc4Cl)ncnc32)[C@H](O)[C@@H]1O (some centres undefined) ... > 100 µM
CSC[C@H]1O[C@@H](n2cnc3c(NC(C)c4cccc(Cl)c4)ncnc32)[C@H](O)[C@@H]1O (some centres undefined) ... 50.8 µM
CSC[C@H]1O[C@@H](n2cnc3c(NCc4cccc(S(F)(F)(F)(F)F)c4)ncnc32)[C@H](O)[C@@H]1O ... 46.4 µM

Provide CC50 for all items below, preserving their order.
1. COC(=O)[C@H](CCSC[C@H]1O[C@@H](n2cnc3c(NCc4cccc(Cl)c4)ncnc32)[C@H](O)[C@@H]1O)NC(=O)C(F)(F)F
2. CC(Nc1ncnc2c1ncn2[C@@H]1O[C@H](CO)[C@@H](O)[C@H]1O)c1cccc(Cl)c1 (some centres undefined)
3. OC[C@H]1O[C@@H](n2cnc3c(NCc4cccc(S(F)(F)(F)(F)F)c4)ncnc32)[C@H](O)[C@@H]1O
4. CSC[C@H]1O[C@@H](n2ccc3c(NCc4cccc(Cl)c4)ncnc32)[C@H](O)[C@@H]1O

1: > 100 µM; 2: > 100 µM; 3: > 100 µM; 4: > 100 µM

* * *

assay: Cytotoxicity against human RD cells by MTS assay; assay type: toxicity, cell-based
Parameter: CC50

// below: answered molecules
CSC[C@H]1O[C@@H](n2cnc3c(NCc4cccc(C)c4)ncnc32)[C@H](O)[C@@H]1O ... > 75 µM
C[C@H](NP(=O)(OC[C@H]1O[C@@H](n2ccc3c(NCc4cccc(C(F)(F)F)c4)ncnc32)[C@H](O)[C@@H]1O)Oc1ccccc1)C(=O)OCc1ccccc1 (stereo not given in full) ... 42.5 µM
CSC[C@H]1O[C@@H](n2cnc3c(NC(C)c4ccccc4Cl)ncnc32)[C@H](O)[C@@H]1O (stereo not given in full) ... > 100 µM
OC[C@H]1O[C@@H](n2cnc3c(NCc4cccc(S(F)(F)(F)(F)F)c4)ncnc32)[C@H](O)[C@@H]1O ... > 100 µM
CSC[C@H]1O[C@@H](n2cnc3c(NCc4ccc(Cl)cc4)ncnc32)[C@H](O)[C@@H]1O ... > 100 µM

Return reported CC50 values for all items listed beneath this line.
1. CSC[C@H]1O[C@@H](n2cnc3c(NCc4cccc(C(F)(F)F)c4)ncnc32)[C@H](O)[C@@H]1O
2. OC[C@H]1O[C@@H](n2ccc3c(NCc4cccc(C(F)(F)F)c4)ncnc32)[C@H](O)[C@@H]1O
3. CSC[C@H]1O[C@@H](n2cnc3c(N4CCc5ccccc54)ncnc32)[C@H](O)[C@@H]1O
4. C[C@H](NP(=O)(OC[C@H]1O[C@@H](n2cnc3c(NCc4cccc(C(F)(F)F)c4)ncnc32)[C@H](O)[C@@H]1O)Oc1ccccc1)C(=O)OCc1ccccc1 (stereo not given in full)
5. CSC[C@H]1O[C@@H](n2ccc3c(NCc4cccc(Cl)c4)ncnc32)[C@H](O)[C@@H]1O
6. CSC[C@H]1O[C@@H](n2cnc3c(NC(C)c4cccc(Cl)c4)ncnc32)[C@H](O)[C@@H]1O (stereo not given in full)
7. OC[C@H]1O[C@@H](n2ccc3c(NCc4cccc(Cl)c4)ncnc32)[C@H](O)[C@@H]1O
8. COC(=O)[C@H](CCSC[C@H]1O[C@@H](n2cnc3c(NCc4cccc(Cl)c4)ncnc32)[C@H](O)[C@@H]1O)NC(=O)C(F)(F)F

["> 100 µM", "> 100 µM", "64.9 µM", "9.18 µM", "> 100 µM", "44.3 µM", "> 20 µM", "> 100 µM"]

Hi there! I need CC50 for each item below, if you can.
1. OC[C@H]1O[C@@H](n2cnc3c(N4CCc5ccccc54)ncnc32)[C@H](O)[C@@H]1O
2. OC[C@H]1O[C@@H](n2cnc3c(NCc4cccc(C(F)(F)F)c4)ncnc32)[C@H](O)[C@@H]1O
3. CSC[C@H]1O[C@@H](n2cnc3c(NCc4cccc(S(F)(F)(F)(F)F)c4)ncnc32)[C@H](O)[C@@H]1O
4. Cc1cccc(CNc2ncnc3c2ncn3[C@@H]2O[C@H](CO)[C@@H](O)[C@H]2O)c1
5. OC[C@H]1O[C@@H](n2cnc3c(NCc4ccccc4Cl)ncnc32)[C@H](O)[C@@H]1O

1: > 100 µM; 2: > 100 µM; 3: 23.5 µM; 4: > 100 µM; 5: 28.2 µM

Look at each molecule and report its CC50.
1. CCOC(=O)/C=C/[C@H](C[C@@H]1CCNC1=O)NC(=O)[C@@H](CC(=O)[C@@H](NC(=O)c1cc(C)on1)C(C)C)Cc1ccc(F)cc1
2. CC(Nc1ncnc2c1ncn2[C@@H]1O[C@H](CO)[C@@H](O)[C@H]1O)c1ccccc1Cl (stereo not given in full)
3. OC[C@H]1O[C@@H](n2cnc3c(NCc4ccc(Cl)cc4)ncnc32)[C@H](O)[C@@H]1O

["> 1 µM", "> 100 µM", "> 100 µM"]

Give one value of CC50 per listed molecule.
1. CSC[C@H]1O[C@@H](n2cnc3c(NCc4ccccc4Cl)ncnc32)[C@H](O)[C@@H]1O
2. CSC[C@H]1O[C@@H](n2cnc3c(NCc4cccc(Cl)c4)ncnc32)[C@H](O)[C@@H]1O
3. OC[C@H]1O[C@@H](n2cnc3c(NCc4cccc(Cl)c4)ncnc32)[C@H](O)[C@@H]1O
4. CC(Nc1ncnc2c1ncn2[C@@H]1O[C@H](CO)[C@@H](O)[C@H]1O)c1cccc(Cl)c1 (stereo not given in full)

["> 100 µM", "> 20 µM", "42.7 µM", "> 100 µM"]
